Target chain: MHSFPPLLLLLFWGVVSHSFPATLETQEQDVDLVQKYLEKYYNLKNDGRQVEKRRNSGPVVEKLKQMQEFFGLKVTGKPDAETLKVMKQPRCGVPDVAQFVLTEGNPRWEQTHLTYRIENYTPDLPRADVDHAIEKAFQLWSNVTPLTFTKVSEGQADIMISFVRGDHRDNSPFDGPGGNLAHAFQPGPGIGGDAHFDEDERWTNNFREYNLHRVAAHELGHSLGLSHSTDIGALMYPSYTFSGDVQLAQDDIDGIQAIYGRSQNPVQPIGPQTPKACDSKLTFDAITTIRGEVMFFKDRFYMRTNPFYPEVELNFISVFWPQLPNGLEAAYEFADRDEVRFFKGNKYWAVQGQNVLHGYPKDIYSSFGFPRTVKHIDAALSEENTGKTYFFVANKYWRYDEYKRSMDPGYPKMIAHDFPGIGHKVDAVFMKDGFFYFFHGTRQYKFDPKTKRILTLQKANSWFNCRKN
READOUT_TYPE: IC50

- TEST_SMILES: "O=c1c(N(CCN2CCOCC2)S(=O)(=O)c2ccc(Oc3ccc(Cl)cc3)cc2)cccn1O"
  READOUT_TYPE: "IC50"
  RESULT: "> 1 µM"
- TEST_SMILES: "CN(c1cccn(O)c1=O)S(=O)(=O)c1ccc(Oc2ccc(Cl)cc2)cc1"
  READOUT_TYPE: "IC50"
  RESULT: "> 1 µM"

###

test: Drug level in rat at 2 mg/kg, iv; type: ADME, organism-based; parameters: dose 2 mg/kg, route intravenous; details: in vivo

- TEST_SMILES: "CN(c1cccn(O)c1=O)S(=O)(=O)c1ccc(Oc2ccc(Cl)cc2)cc1"
  C0 [µM]: 8.4
